- Measurement target: T1, cynomolgus monkey EL (cynomolgus monkey)
- T1 construct: Heparin extract; also called cynomolgus EL; Cynomolgus EL
- Assay procedure: Biacore; EL captured by anti-C2-tag Ab; bivalent fit
Property name: koff (s⁻¹)
Provide only the numeric value, understood in s⁻¹.

Worked examples, 3 binders total:
Input: Quick check: koff of 23H8 (antibody, mouse IgG2a, V domains shown, mouse IgG2a from hybridoma; also called 23H8 (mouse mAb)) VH: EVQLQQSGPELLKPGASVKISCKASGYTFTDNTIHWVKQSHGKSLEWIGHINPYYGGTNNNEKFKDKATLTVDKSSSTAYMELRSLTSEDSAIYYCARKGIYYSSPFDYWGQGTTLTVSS VL: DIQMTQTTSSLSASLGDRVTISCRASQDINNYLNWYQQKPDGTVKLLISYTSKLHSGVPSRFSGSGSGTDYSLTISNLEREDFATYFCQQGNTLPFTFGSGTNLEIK ?
Output: 0.00075

Input: Quick check: koff of 7D4 (antibody, mouse IgG1, V domains shown, mouse IgG1 from hybridoma) VH: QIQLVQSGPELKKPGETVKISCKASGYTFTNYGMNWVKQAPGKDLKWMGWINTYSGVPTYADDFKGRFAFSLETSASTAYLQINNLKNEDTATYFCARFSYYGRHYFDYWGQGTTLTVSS VL: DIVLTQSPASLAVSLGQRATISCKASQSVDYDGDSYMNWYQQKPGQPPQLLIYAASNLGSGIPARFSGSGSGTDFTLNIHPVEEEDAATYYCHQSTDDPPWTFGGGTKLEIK ?
Output: 0.00023

Input: Quick check: koff of 53A11 (antibody, mouse IgG2a, V domains shown, mouse IgG2a from hybridoma; also called 53A11 (mouse mAb)) VH: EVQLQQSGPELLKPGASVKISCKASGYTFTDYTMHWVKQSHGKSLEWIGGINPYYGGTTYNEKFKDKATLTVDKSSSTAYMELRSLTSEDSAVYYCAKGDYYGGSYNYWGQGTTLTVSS VL: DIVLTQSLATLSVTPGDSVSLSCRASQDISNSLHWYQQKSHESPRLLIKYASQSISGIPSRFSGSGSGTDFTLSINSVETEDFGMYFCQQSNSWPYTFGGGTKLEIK ?
Output: 0.00038

New cases:
Input: Quick check: koff of 19E7 (antibody, mouse IgG2a, V domains shown, mouse IgG2a from hybridoma; also called 19E1(19E7)) VH: QVQLQQPGSVLVRPGASVKLSCKASGYTFTTYWMHWVKQRPGQGLEWIGEIHPYSGNNNNNEKFKGKATLTVDTSSSTAYVDLSRLTSEDSAVYYCARYDSNYVFAYWGQGTLVTVSA VL: QIVLTQSPAIMSASPGEGVTITCSASSSVSYMHWFQQKPGTSPKLWIYSTSNLASGVPARFSGSGSGTSYSLTISRMEAEDAATYYCQQRDSYLTFGSGTKLEVK ?
Output: 0.00018

Input: Quick check: koff of 14E1 (antibody, mouse IgG1, V domains shown, mouse IgG1 from hybridoma) VH: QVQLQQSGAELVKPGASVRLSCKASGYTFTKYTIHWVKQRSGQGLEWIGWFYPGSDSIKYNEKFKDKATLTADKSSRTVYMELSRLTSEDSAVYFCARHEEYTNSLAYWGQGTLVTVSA VL: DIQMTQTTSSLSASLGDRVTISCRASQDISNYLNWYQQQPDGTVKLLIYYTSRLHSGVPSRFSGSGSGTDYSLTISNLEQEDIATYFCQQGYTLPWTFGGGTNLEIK ?
Output: 0.00069

Input: Quick check: koff of 13B3 (antibody, mouse IgG2a, V domains shown, mouse IgG2a from hybridoma; also called 13B3 (mouse mAb)) VH: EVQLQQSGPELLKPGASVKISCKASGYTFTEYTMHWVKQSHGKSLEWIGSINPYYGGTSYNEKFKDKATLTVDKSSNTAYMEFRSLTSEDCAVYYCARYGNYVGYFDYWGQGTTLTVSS VL: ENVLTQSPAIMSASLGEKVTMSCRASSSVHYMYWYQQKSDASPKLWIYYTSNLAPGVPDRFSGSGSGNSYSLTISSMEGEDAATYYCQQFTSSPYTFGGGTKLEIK ?
Output: 0.00041
